Reported classification of cell line as Low(1), Medium(2), High(3) sensitivity to compound values follow for various molecules
# Tested on: 60 cancer cell lines (NCI 60 cancer cell line series)
# methodSummary: NCI-DTP in vitro cancer screen, sulforhodamine B (SRB) growth inhibition, 48 hour exposure
# Format: cell-based, human
# testParameters: Breast BT-549 CL5013
endpointLabel: classification of cell line as Low(1), Medium(2), High(3) sensitivity to compound

COc1cccc2c1C(=O)c1c(O)c3c(c(O)c1C2=O)C[C@@](O)(C(C)=O)C[C@@H]3O[C@H]1C[C@H](N)[C@H](O)[C@H](C)O1 [Daunorubicin]	1
N.N.[Cl][Pt][Cl] [cisplatin, cis-Diamminedichloroplatinum (II), reference compound]	2
COc1cc([C@@H]2c3cc4c(cc3[C@@H](O[C@@H]3O[C@@H]5CO[C@@H](c6cccs6)O[C@H]5[C@H](O)[C@H]3O)[C@H]3COC(=O)[C@H]23)OCO4)cc(OC)c1O [Teniposide]	2
